Assay: The drug is tested on Z-013 corresponding to rabbit gut metagenome with ENA study accession number: PRJEB37062 and ENA sample accession number: ERS12561813 for biotransformation under anaerobic condition. The drug concentrations were measured over 9 timepoints collected between 0 and 24 hours of incubation by liquid-chromatography-coupled mass spectrometry (LC–MS); further: call rule not given here
Conditions: 2 µM
MEASURED_QUANTITY: Bacterial Biotransformation

See these solved cases before continuing.
INSERT INTO assay_data (compound, endpoint_value) VALUES
  ('CCN(CC)C(=O)C1(c2ccccc2)CC1CN (centres undefined)', 'Compound NOT metabolized'),
  ('N#Cc1ccc2[nH]cc(CCCCN3CCN(c4ccc5oc(C(N)=O)cc5c4)CC3)c2c1 [VILAZODONE]', 'Compound metabolized'),
  ('C#C[C@]1(OC(C)=O)CC[C@H]2[C@@H]3CCC4=C/C(=N/O)CC[C@@H]4[C@H]3CC[C@@]21CC [NORGESTIMATE]', 'Compound NOT metabolized'),
  ('Nc1nc(N)nc(-c2cc(Cl)ccc2Cl)n1.O=C(O)/C=C\C(=O)O [IRSOGLADINE MALEATE]', 'Compound NOT metabolized'),
  ('CN(C)CCC=C1c2ccccc2COc2ccccc21 [DOXEPIN]', 'Compound NOT metabolized'),
  ('CN[C@H]1CC[C@@H](c2ccc(Cl)c(Cl)c2)c2ccccc21 [SERTRALINE]', 'Compound NOT metabolized'),
  ('CN1[C@@H]2CC[C@H]1C[C@@H](OC(=O)[C@H](CO)c1ccccc1)C2 [HYOSCYAMINE]', 'Compound NOT metabolized'),
  ('CNNCc1ccc(C(=O)NC(C)C)cc1 [PROCARBAZINE]', 'Compound metabolized');

[Q] Which Bacterial Biotransformation value belongs to Cc1cc(C)cc(OCC2CNC(=O)O2)c1 (centres undefined) [METAXALONE] ?
[A] Compound NOT metabolized

---

Assay: The drug is tested on Z-025 corresponding to rabbit gut metagenome with ENA study accession number: PRJEB37062 and ENA sample accession number: ERS12561824 for biotransformation under anaerobic condition. The drug concentrations were measured over 9 timepoints collected between 0 and 24 hours of incubation by liquid-chromatography-coupled mass spectrometry (LC–MS)
Details: 2 µM
MEASURED_QUANTITY: Bacterial Biotransformation

Look over these answered cases.
INSERT INTO measurements (compound, measured_quantity, endpoint_value) VALUES
  ('CCCN1C[C@H](CSC)C[C@@H]2c3cccc4[nH]cc(c34)C[C@H]21.CS(=O)(=O)O [PERGOLIDE MESYLATE]', 'Bacterial Biotransformation', 'Compound metabolized'),
  ('O=C1CN2Cc3c(ccc(Cl)c3Cl)N=C2N1 [ANAGRELIDE]', 'Bacterial Biotransformation', 'Compound NOT metabolized'),
  ('CCN1CCCC1CNC(=O)c1cc(S(=O)(=O)CC)c(N)cc1OC (stereo unspecified) [AMISULPRIDE]', 'Bacterial Biotransformation', 'Compound NOT metabolized'),
  ('CN(CCOc1ccc(CC2SC(=O)NC2=O)cc1)c1ccccn1.O=C(O)/C=C\C(=O)O (stereo unspecified) [ROSIGLITAZONE MALEATE]', 'Bacterial Biotransformation', 'Compound metabolized'),
  ('Nc1nc(NC2CC2)c2ncn([C@H]3C=C[C@@H](CO)C3)c2n1.Nc1nc(NC2CC2)c2ncn([C@H]3C=C[C@@H](CO)C3)c2n1.O=S(=O)(O)O [ABACAVIR SULFATE]', 'Bacterial Biotransformation', 'Compound NOT metabolized'),
  ('CC(=O)SCC(Cc1ccccc1)C(=O)NCC(=O)OCc1ccccc1 (stereo unspecified) [RACECADOTRIL]', 'Bacterial Biotransformation', 'Compound metabolized');

[Q] Any idea what its Bacterial Biotransformation is? The compound is CC(C)c1c(CN(C)C(C)Cc2ccccc2)n(C)n(-c2ccccc2)c1=O (stereo unspecified) [FAMPROFAZONE]
[A] Compound NOT metabolized

[Q] Entry under review: CCS(=O)(=O)CCn1c([N+](=O)[O-])cnc1C [TINIDAZOLE] . Reported Bacterial Biotransformation?
[A] Compound metabolized

[Q] For the compound CC(C)(C)NCC(O)COc1cccc2c1CC(O)C(O)C2 (stereo unspecified) [NADOLOL] , what Bacterial Biotransformation is on record?
[A] Compound NOT metabolized

[Q] Please report the recorded Bacterial Biotransformation for CC(CCc1ccccc1)NCC(O)c1ccc(O)c(C(N)=O)c1 (stereo unspecified) [LABETALOL] .
[A] Compound metabolized

[Q] What does the record list as Bacterial Biotransformation for Nc1nnc(-c2cccc(Cl)c2Cl)c(N)n1 [LAMOTRIGINE] ?
[A] Compound NOT metabolized

---

Experiment: The drug is tested on WLS-086 corresponding to human gut metagenome with ENA study accession number: PRJEB37062 and ENA sample accession number: ERS12561752 for biotransformation under anaerobic condition. The drug concentrations were measured over 9 timepoints collected between 0 and 24 hours of incubation by liquid-chromatography-coupled mass spectrometry (LC–MS)
Conditions: 2 µM
MEASURED_QUANTITY: Bacterial Biotransformation

INSERT INTO results (molecule, measured_quantity, endpoint_value) VALUES
  ('CCN(CC)CCNC(=O)c1ccc(NC(C)=O)cc1 [ACECAINIDE]', 'Bacterial Biotransformation', 'Compound metabolized'),
  ('Cc1nc(Nc2ncc(C(=O)Nc3c(C)cccc3Cl)s2)cc(N2CCN(CCO)CC2)n1 [DASATINIB ANHYDROUS]', 'Bacterial Biotransformation', 'Compound metabolized'),
  ('CN(C)C(=O)Oc1cccc([N+](C)(C)C)c1.[Br-] [NEOSTIGMINE BROMIDE]', 'Bacterial Biotransformation', 'Compound NOT metabolized'),
  ('COC(=O)[C@H](c1ccccc1Cl)N1CCc2sccc2C1.O=S(=O)(O)O [CLOPIDOGREL BISULFATE]', 'Bacterial Biotransformation', 'Compound metabolized'),
  ('CC[C@@]1(O)C(=O)OCc2c1cc1n(c2=O)Cc2cc3c(CN(C)C)c(O)ccc3nc2-1', 'Bacterial Biotransformation', 'Compound NOT metabolized');

[Q] What Bacterial Biotransformation value was documented for this molecule, "CC(=O)O[C@H]1C(=O)[C@@]2(C)[C@H]([C@H](OC(=O)c3ccccc3)[C@]3(O)C[C@H](OC(=O)[C@H](O)[C@@H](NC(=O)c4ccccc4)c4ccccc4)C(C)=C1C3(C)C)[C@]1(OC(C)=O)CO[C@@H]1C[C@@H]2O" ?
[A] Compound NOT metabolized

[Q] Endpoint output: Bacterial Biotransformation of "CC[C@H](C)C(=O)O[C@H]1CCC=C2C=C[C@H](C)[C@H](CC[C@@H]3C[C@@H](O)CC(=O)O3)[C@H]21" . Value?
[A] Compound metabolized

[Q] Sample "O=C([O-])C[C@H](O)C[C@H](O)/C=C/c1c(C2CC2)nc2ccccc2c1-c1ccc(F)cc1.O=C([O-])C[C@H](O)C[C@H](O)/C=C/c1c(C2CC2)nc2ccccc2c1-c1ccc(F)cc1.[Ca+2]" — what was its Bacterial Biotransformation?
[A] Compound metabolized

[Q] So what does the record say about Bacterial Biotransformation for C[N+]12CCC(CC1)C(OC(=O)C(O)(c1ccccc1)c1ccccc1)C2.[Br-] (stereo not drawn) [CLIDINIUM BROMIDE] ?
[A] Compound metabolized

[Q] What Bacterial Biotransformation value was documented for this molecule, O=C(NC(Cc1cc(=O)[nH]c2ccccc12)C(=O)O)c1ccc(Cl)cc1 (stereo not drawn) [REBAMIPIDE] ?
[A] Compound metabolized

[Q] Any idea what its Bacterial Biotransformation is? The molecule is O=C1N=C([O-])NC1(c1ccccc1)c1ccccc1.[Na+] [PHENYTOIN SODIUM]
[A] Compound metabolized

[Q] Please look up its Bacterial Biotransformation: CSc1ccc2c(c1)C(N1CCN(C)CC1)Cc1ccccc1S2.O=C(O)/C=C\C(=O)O (stereo not drawn)
[A] Compound metabolized

[Q] Recorded Bacterial Biotransformation of Br.COc1ccc2c(c1)[C@]13CCCC[C@@H]1[C@H](C2)N(C)CC3.O [DEXTROMETHORPHAN HYDROBROMIDE] , please.
[A] Compound metabolized

[Q] Report Bacterial Biotransformation for CCOc1cc(CC(=O)N[C@@H](CC(C)C)c2ccccc2N2CCCCC2)ccc1C(=O)O [REPAGLINIDE] please.
[A] Compound metabolized

[Q] What value of Bacterial Biotransformation has been recorded for this entry: "COc1ccc(/C=C/C(=O)Nc2ccccc2C(=O)O)cc1OC"
[A] Compound NOT metabolized

[Q] Bacterial Biotransformation lookup needed for COc1cc(C(=O)NCc2ccc(OCCN(C)C)cc2)cc(OC)c1OC [TRIMETHOBENZAMIDE] , thanks.
[A] Compound NOT metabolized

[Q] // lookup Bacterial Biotransformation for CCN(CC)CCNC(=O)c1cc(S(C)(=O)=O)ccc1OC [TIAPRIDE]
[A] Compound NOT metabolized

[Q] Entry CN1CCN(C2=Nc3ccccc3Oc3ccc(Cl)cc32)CC1.O=C(O)CCC(=O)O [LOXAPINE SUCCINATE] : reported Bacterial Biotransformation = ?
[A] Compound NOT metabolized
